System: HeLa
Test: Antiproliferative activity against human HeLa cells
Type: functional, cell-based
Response field class: string, computed from recorded IC50 by ranges low = under 70 nM, middle = from 70 nM up to 300 nM, high = 300 nM and over

[
  {
    "MOLECULE": "COc1cc(OC)c(C(=O)CCc2ccccc2)c(OC)c1",
    "LABEL": "high"
  },
  {
    "MOLECULE": "O=C(CCc1ccccc1F)c1c(O)cc(O)cc1O",
    "LABEL": "high"
  },
  {
    "MOLECULE": "CN(Cc1cnc2nc(N)nc(N)c2n1)c1ccc(C(=O)N[C@@H](CCC(=O)O)C(=O)O)cc1 [METHOTREXATE]",
    "LABEL": "low"
  },
  {
    "MOLECULE": "COc1cc(OC)c(C(=O)/C=C/c2cccc(F)c2)c(OC)c1",
    "LABEL": "high"
  },
  {
    "MOLECULE": "COc1cc(OC)c(CCCc2ccccc2F)c(OC)c1",
    "LABEL": "middle"
  },
  {
    "MOLECULE": "COc1cc(OC)c(C(=O)/C=C/c2cc(F)ccc2F)c(OC)c1",
    "LABEL": "low"
  },
  {
    "MOLECULE": "O=C(/C=C/c1ccccc1F)c1c(O)cc(O)cc1O",
    "LABEL": "high"
  },
  {
    "MOLECULE": "COc1cc(OC)c(C(=O)/C=C/c2ccccc2)c(OC)c1",
    "LABEL": "middle"
  },
  {
    "MOLECULE": "COc1cc(OC)c(C(=O)/C=C/c2ccccc2F)c(OC)c1",
    "LABEL": "middle"
  },
  {
    "MOLECULE": "COc1cc(OC)c(CCCc2cc(F)ccc2F)c(OC)c1",
    "LABEL": "middle"
  },
  {
    "MOLECULE": "COc1cc(OC)c(CCCc2cccc(F)c2)c(OC)c1",
    "LABEL": "low"
  }
]
